tested on: A549; experiment: Cytotoxicity against human A549 cells after 72 hrs by SRB assay; type: functional; conditions: A549, 72 h
parameter_measured: log10 GI50 (log10 of the value in nM)
Quick note: numbers are log10 of GI50, with nM as the unit.

In the examples that follow, each entry is paired with its recorded log10 GI50.
CC(=O)/N=C1\NCCC(c2c[nH]c3ccc(Br)cc23)N1 (racemic) [APLICYANIN B] :: 2.71
CC(=O)/N=C1\NCCC(c2cn(C)c3ccccc23)N1 (racemic) :: 4.03
NC1=NCCC(c2c[nH]c3ccc(Br)cc23)N1 (racemic) [APLICYANIN A] :: 2.43

What does the data say about its log10 GI50? Entry: Cn1cc(C2CCN=C(N)N2)c2ccc(Br)cc21 (racemic)
3.96

# query: log10 GI50 of entry Cn1cc(C2CCN=C(N)N2)c2ccccc21 (racemic)
3.43

Data origin, for the record: ChEMBL document CHEMBL1154620
